experimental system: Muscarinic acetylcholine receptor M4 (Rattus norvegicus)
test summary: Allosteric activation of rat recombinant muscarinic M4 receptor expressed in CHO cells assessed as potentiation of 15 nM acetylcholine-induced calcium mobilization after 1 hr by fluorescence assay
Assay type: functional, cell-based
experimental endpoint: pEC50
Answers are plain numbers, as −log10 of the molar value.

Return reported pEC50 values for all items listed beneath this line.
1. Cc1cc(C)c2c(N)c(C(=O)NC(C)C)sc2n1
2. Cc1cc(C)c2c(N)c(C(=O)NCc3ccccc3)sc2n1

Result:
[5.22, 5.89]

###

experimental system: Muscarinic acetylcholine receptor M4 (Rattus norvegicus) (UniProt P08485)
Sequence (whole entry): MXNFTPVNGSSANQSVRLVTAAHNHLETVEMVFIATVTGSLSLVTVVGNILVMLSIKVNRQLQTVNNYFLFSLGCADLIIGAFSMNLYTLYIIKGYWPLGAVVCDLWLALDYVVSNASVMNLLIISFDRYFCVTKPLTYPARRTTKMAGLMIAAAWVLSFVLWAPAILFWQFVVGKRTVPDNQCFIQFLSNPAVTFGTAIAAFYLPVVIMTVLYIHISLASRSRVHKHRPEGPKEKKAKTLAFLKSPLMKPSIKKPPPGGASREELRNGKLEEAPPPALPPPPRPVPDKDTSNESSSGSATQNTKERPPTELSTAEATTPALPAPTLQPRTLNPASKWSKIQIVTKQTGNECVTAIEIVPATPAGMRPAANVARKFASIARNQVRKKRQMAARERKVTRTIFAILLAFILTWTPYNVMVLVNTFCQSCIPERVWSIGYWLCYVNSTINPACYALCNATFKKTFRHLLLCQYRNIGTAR
test summary: Allosteric activation of rat recombinant muscarinic M4 receptor expressed in CHO cells assessed as […] in acetylcholine EC50 for induction of calcium mobilization at 10 uM after 1 hr by fluorescence assay
Assay type: functional, cell-based
I'd be grateful if you could share measured fold change (FC) for these entries.
Answers are plain numbers.

Sample answers from the record:
[[record]]
mol_smiles = "Cc1cc(C)c2c(N)c(C(=O)NCc3ccco3)sc2n1"
experimental_endpoint = "fold change (FC)"
result_number = 21

[[record]]
mol_smiles = "Cc1cc(C)c2c(N)c(C(=O)NCc3ccc(C(F)(F)F)cc3)sc2n1"
experimental_endpoint = "fold change (FC)"
result_number = 37

[[record]]
mol_smiles = "Cc1cc(C)c2c(N)c(C(=O)NCc3ccc(F)cc3)sc2n1"
experimental_endpoint = "fold change (FC)"
result_number = 30


So, Cc1cc(C)c2c(N)c(C(=O)NCc3ccc(Cl)cc3)sc2n1 ? Its fold change (FC) was 47
